Entries and their self-cleavage values follow.
B1: Twister Ribozyme (parent)
chain: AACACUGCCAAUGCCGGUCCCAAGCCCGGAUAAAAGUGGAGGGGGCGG

Variants of: B1
Assay: self-cleavage, relative activity (ratio to wild type); higher = more cleavage; co-transcriptional
measuredAttribute: self-cleavage

1. C26U G41A	0.109
2. A33U G44A	0.907
3. C27G G29A	0.0827
4. U6C G47A	0.579
5. A35G G39A	0.374
6. C15A G24A	0.0695
7. G7C C9G	0.0747
8. U12A G39U	0.242
9. C9G C26A	0.115
10. C27U G48C	0.844
11. C9A C14A	0.61
12. C5A C21G	0.113
13. U6C G13A	0.0845
14. G28U A40C	0.136
15. C26U A40C	0.131
16. C5U U37A	0.547
17. A10U G24U	0.119
18. A32U G48U	0.977
19. U6C C15U	0.354
20. G39U C46A	0.19
21. A4U C27U	0.0803
22. A4C C25A	0.0458
